Reported Average inhibition female (%) values follow for various compounds
test system: P. falciparum female gametocytes; assay: P. falciparum Dual Gamete Formation Assay (PfDGFA), female readout (Pfs25-positive female gametes); assay type: cell-based, Plasmodium falciparum NF54; settings: PfDGFA at 2µM, 24h preincubation; average of replicates
Respond with a number, then the unit of measure.

# annotated cases, reported Average inhibition female (%) shown
{"Compound": "Cc1ccc2ccncc2c1N [TCMDC-138025]", "Average inhibition female (%)": "-17.6%"}
{"Compound": "CCN(C)C(=O)n1ncc2c3c(N)nc(N)nc3ccc21 [TCMDC-137828]", "Average inhibition female (%)": "-0.8%"}
{"Compound": "Cc1ccc2c(Cc3cnc(N)nc3N)cc(C)c(N)c2n1.Cl [TCMDC-137878]", "Average inhibition female (%)": "-0.2%"}
{"Compound": "CCCCN(Cc1cc(Cl)c(OC)c(OC)c1)c1ccc(C(O)(C(F)(F)F)C(F)(F)F)cc1.O=C(O)C(F)(F)F [TCMDC-135446]", "Average inhibition female (%)": "-3.4%"}

INPUT: For the compound shown here, OC1CCN(c2cc(-c3ccccn3)nc(-c3ccccn3)n2)CC1 [TCMDC-123786] , give the reported Average inhibition female (%).
OUTPUT: 0.215%

The reported numbers originate from paper PMC10584170.
